What IC50 relative to Chimeric RFB4 IgG1 was measured for each of the following?
Measured target: T1, CD22-Fc (R&D Systems Cat. No. 1968SL) (human, UniProt P20273 20-687)
T1 construct: Bought reagent; also called CD22 antigen; huCD22-Fc; not shown: Fc part of the bought fusion
T1 sequence (looked up): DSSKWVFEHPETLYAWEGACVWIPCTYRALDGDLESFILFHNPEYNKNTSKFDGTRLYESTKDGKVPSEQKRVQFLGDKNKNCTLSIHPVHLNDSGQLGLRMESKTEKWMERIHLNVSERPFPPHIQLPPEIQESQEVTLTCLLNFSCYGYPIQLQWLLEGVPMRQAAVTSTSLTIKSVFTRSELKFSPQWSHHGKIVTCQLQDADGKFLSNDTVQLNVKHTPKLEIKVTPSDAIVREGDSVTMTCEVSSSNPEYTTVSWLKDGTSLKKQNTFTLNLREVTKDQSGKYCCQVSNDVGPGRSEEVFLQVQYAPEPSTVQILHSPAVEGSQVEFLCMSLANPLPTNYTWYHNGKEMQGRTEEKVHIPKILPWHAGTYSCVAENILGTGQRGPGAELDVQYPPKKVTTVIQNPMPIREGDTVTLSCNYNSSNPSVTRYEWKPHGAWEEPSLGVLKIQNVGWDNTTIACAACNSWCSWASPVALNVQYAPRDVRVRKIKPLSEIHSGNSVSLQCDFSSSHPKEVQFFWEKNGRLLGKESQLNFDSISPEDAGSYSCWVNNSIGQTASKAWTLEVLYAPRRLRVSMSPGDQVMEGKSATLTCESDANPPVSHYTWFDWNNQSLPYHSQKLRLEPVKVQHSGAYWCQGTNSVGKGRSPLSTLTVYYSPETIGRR
Protocol: competition ELISA on coated CD22-Fc; competitor biotinylated chimeric RFB4

Inquiry: Hello, please tell me recorded IC50 relative to Chimeric RFB4 IgG1 for this one: humanized RFB4 antibody VH6/VK1 (antibody, human IgG1, V domains shown) VH: EVQLVESGGGLVKPGGSLKLSCAASGFAFSIYDMSWVRQAPGKGLEWVAYISSGGGTTYYPDTVKGRFTISRDNAKNSLYLQMSSLRAEDTAMYYCARHSGYGSSYGVLFAYWGQGTLVTVSS VL: DIQMTQSPSSLSASVGDRVTITCRASQDISNYLNWYQQKPGKAVKLLIYYTSILHSGVPSRFSGSGSGTDYTLTISSLQQEDFATYFCQQGNTLPWTFGGGTKVEIK
Reply text: 0.9 relative to Chimeric RFB4 IgG1

Inquiry: Hello, please tell me recorded IC50 relative to Chimeric RFB4 IgG1 for this one: humanized RFB4 antibody VH3/VK4 (antibody, human IgG1, V domains shown) VH: EVQLVESGGGLVKPGGSLKLSCAASGFAFSIYDMSWVRQAPGKGLEWVAYISSGGGTTYYPDTVKGRFTISRDNAKNTLYLQMSSLRAEDTAMYYCARHSGYGSSYGVLFAYWGQGTLVTVSS VL: DIQMTQSPSSVSASVGDRVTITCRASQDISNYLNWYQQKPGKAPKLLIYYTSILHSGVPSRFSGSGSGTDYTLTISSLQPEDFATYFCQQGNTLPWTFGGGTKVEIK
Reply text: 1.1 relative to Chimeric RFB4 IgG1

Inquiry: Hello, please tell me recorded IC50 relative to Chimeric RFB4 IgG1 for this one: humanized RFB4 antibody VH5/VK1 (antibody, human IgG1, V domains shown) VH: EVQLVESGGGLVKPGGSLKLSCAASGFAFSIYDMSWVRQAPGKGLEWVAYISSGGGTTYYPDTVKGRFTISRDNAKNSLYLQMNSLRAEDTAMYYCARHSGYGSSYGVLFAYWGQGTLVTVSS VL: DIQMTQSPSSLSASVGDRVTITCRASQDISNYLNWYQQKPGKAVKLLIYYTSILHSGVPSRFSGSGSGTDYTLTISSLQQEDFATYFCQQGNTLPWTFGGGTKVEIK
Reply text: 0.9 relative to Chimeric RFB4 IgG1

Inquiry: Hello, please tell me recorded IC50 relative to Chimeric RFB4 IgG1 for this one: humanized RFB4 antibody VH5/VK4 (antibody, human IgG1, V domains shown) VH: EVQLVESGGGLVKPGGSLKLSCAASGFAFSIYDMSWVRQAPGKGLEWVAYISSGGGTTYYPDTVKGRFTISRDNAKNSLYLQMNSLRAEDTAMYYCARHSGYGSSYGVLFAYWGQGTLVTVSS VL: DIQMTQSPSSVSASVGDRVTITCRASQDISNYLNWYQQKPGKAPKLLIYYTSILHSGVPSRFSGSGSGTDYTLTISSLQPEDFATYFCQQGNTLPWTFGGGTKVEIK
Reply text: 1 relative to Chimeric RFB4 IgG1

Inquiry: Hello, please tell me recorded IC50 relative to Chimeric RFB4 IgG1 for this one: humanized RFB4 antibody VH3/VK2 (antibody, human IgG1, V domains shown) VH: EVQLVESGGGLVKPGGSLKLSCAASGFAFSIYDMSWVRQAPGKGLEWVAYISSGGGTTYYPDTVKGRFTISRDNAKNTLYLQMSSLRAEDTAMYYCARHSGYGSSYGVLFAYWGQGTLVTVSS VL: DIQMTQSPSSLSASVGDRVTITCRASQDISNYLNWYQQKPGKAVKLLIYYTSILHSGVPSRFSGSGSGTDYTLTISSLQPEDFATYFCQQGNTLPWTFGGGTKVEIK
Reply text: 1 relative to Chimeric RFB4 IgG1
